molecular target: human MC3R (Homo sapiens); construct: expressed in transfected cells; host or cells: HEK-293 cells stably expressing the GScAMP22F split-luciferase cAMP sensor (parent reporter line from Promega); MC3R clone generated in-house, G418 selection; test: split-luciferase cAMP sensor assay, agonist mode (measurement window 1), hMC3R; assay type: cell-based; settings: agonist mode, hMC3R stable cell line; read-out: MC3R cAMP % max activation
Sequence (P41968 whole entry): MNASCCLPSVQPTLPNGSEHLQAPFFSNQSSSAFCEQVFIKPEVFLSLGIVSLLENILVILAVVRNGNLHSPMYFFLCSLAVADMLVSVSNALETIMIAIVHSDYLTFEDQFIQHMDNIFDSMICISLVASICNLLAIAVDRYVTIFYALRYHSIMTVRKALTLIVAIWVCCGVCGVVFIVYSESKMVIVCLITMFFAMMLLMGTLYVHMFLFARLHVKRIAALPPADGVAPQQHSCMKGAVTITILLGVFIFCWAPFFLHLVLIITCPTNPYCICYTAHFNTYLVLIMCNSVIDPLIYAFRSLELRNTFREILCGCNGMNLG
Positions of bridges follow the written chain, without caps; N, C: chain ends. Non-standard residues stand in square brackets, D forms with d. Residues, ends and D or L forms follow the SMILES beside them. Phe(4-Br) = N[C@@H](Cc1ccc(Br)cc1)C(=O)O; dPhe(4-F) = N[C@H](Cc1ccc(F)cc1)C(=O)O
reported.property: Emax (%)
State the answer as a number, implicitly in %.

Known Emax results, listed for orientation:
CC(=O)N[C@@H](CCCNC(=N)N)C(=O)N[C@H]1CSSC[C@@H](C(N)=O)NC(=O)[C@H](Cc2c[nH]c3ccccc23)NC(=O)[C@H](CCCNC(=N)N)NC(=O)[C@@H](Cc2c[nH]c3ccccc23)NC(=O)[C@H](CCCNC(=N)N)NC(=O)[C@@H](C)NC1=O [CTX-1274] (Ac-RC[dA]R[dW]RWC-NH2; disulfide 2-8) ... 5.4
CC(=O)N[C@@H](CCCNC(=N)N)C(=O)N[C@H]1CSSC[C@@H](C(N)=O)NC(=O)[C@@H](Cc2c[nH]c3ccccc23)NC(=O)[C@H](CCCNC(=N)N)NC(=O)[C@@H](Cc2ccc(F)cc2)NC(=O)[C@H](CCCNC(=N)N)NC(=O)[C@@H](C)NC1=O [CTX-1236] (Ac-RC[dA]R[dPhe(4-F)]R[dW]C-NH2; disulfide 2-8) ... 66

## Task # get_value(readout= Emax, system= human MC3R (Homo sapiens)) for CC(=O)N[C@@H](CCCNC(=N)N)C(=O)N[C@H]1CSSC[C@@H](C(N)=O)NC(=O)[C@@H](Cc2c[nH]c3ccccc23)NC(=O)[C@H](CCCNC(=N)N)NC(=O)[C@H](Cc2ccc(Br)cc2)NC(=O)[C@H](CCCNC(=N)N)NC(=O)[C@@H](C)NC1=O [CTX-1215] (Ac-RC[dA]R[Phe(4-Br)]R[dW]C-NH2; disulfide 2-8 (inferred))
## Result 2.1
